Please go through the items and note down their zone of inhibition at 50 µM.
# Test system: Acinetobacter baumannii
# test-details: Antibacterial activity against clinically isolated Acinetobacter baumannii RBRJ027 assessed as inhibition of bacterial growth at 50 uM measured after 48 hrs by agar well diffusion method
# Type: functional
# conditions: read-out: IZ
Give bare numbers, in mm.

Cc1ccc(C(C)C)c(OCc2cn(CCCN3C(=O)C(=O)c4cc(Br)ccc43)nn2)c1 :: 11.2
Cc1ccc(C(C)C)c(OCc2cn(CCN3C(=O)C(=O)c4cc(C)ccc43)nn2)c1 :: 12.7
Cc1ccc(C(C)C)c(OCc2cn(CCCCN3C(=O)C(=O)c4cc(F)ccc43)nn2)c1 :: 11.8
Cc1ccc(C(C)C)c(OCc2cn(CCCCN3C(=O)C(=O)c4cc(Cl)ccc43)nn2)c1 :: 11.1
Cc1ccc(C(C)C)c(OCc2cn(CCCN3C(=O)C(=O)c4cc(C)ccc43)nn2)c1 :: 13.1
Cc1ccc(C(C)C)c(OCc2cn(CCCCN3C(=O)C(=O)c4cc(I)ccc43)nn2)c1 :: 10.1
COc1ccc2c(c1)C(=O)C(=O)N2CCn1cc(COc2cc(C)ccc2C(C)C)nn1 :: 11.4
Cc1ccc(C(C)C)c(OCc2cn(CCN3C(=O)C(=O)c4ccccc43)nn2)c1 :: 13.3

We now examine a further compound.
The recorded zone of inhibition at 50 µM for `Cc1ccc(C(C)C)c(OCc2cn(CCCN3C(=O)C(=O)c4ccccc43)nn2)c1` is 18.3

###

Kindly supply the reported zone of inhibition at 50 µM values for the records listed here.
# Test system: Escherichia coli
# test-details: Antibacterial activity against Escherichia coli MTCC 119 assessed as inhibition of bacterial growth at 50 uM measured after 48 hrs by agar well diffusion method
# Assay type: functional
# conditions: read-out: IZ
Answers are plain numbers, in mm.

Cc1ccc(C(C)C)c(OCc2cn(CCCCN3C(=O)C(=O)c4cc(C)ccc43)nn2)c1 :: 15.5
Cc1ccc(C(C)C)c(OCc2cn(CCN3C(=O)C(=O)c4ccccc43)nn2)c1 :: 18.6
Cc1ccc(C(C)C)c(OCc2cn(CCCCN3C(=O)C(=O)c4cc(F)ccc43)nn2)c1 :: 11.2
COc1ccc2c(c1)C(=O)C(=O)N2CCCCn1cc(COc2cc(C)ccc2C(C)C)nn1 :: 14.4

Noted for `Cc1ccc(C(C)C)c(OCc2cn(CCN3C(=O)C(=O)c4cc(Cl)ccc43)nn2)c1` : its zone of inhibition at 50 µM reads 13.6

###

# Tested on: Escherichia coli
# test-details: Antibacterial activity against clinically isolated Escherichia coli RBRJ013 assessed as inhibition of bacterial growth at 50 uM measured after 48 hrs by agar well diffusion method
# Format: functional
# conditions: read-out: IZ
I'd appreciate it if you could supply zone of inhibition at 50 µM values for the items below.
One number for each entry, in mm.

For orientation, consider the following solved cases.
Cc1ccc(C(C)C)c(OCc2cn(CCN3C(=O)C(=O)c4cc(Cl)ccc43)nn2)c1 :: 13.1
Cc1ccc(C(C)C)c(OCc2cn(CCCN3C(=O)C(=O)c4cc(C)ccc43)nn2)c1 :: 17.6
Cc1ccc(C(C)C)c(OCc2cn(CCCCN3C(=O)C(=O)c4cc(I)ccc43)nn2)c1 :: 10.9
Cc1ccc(C(C)C)c(OCc2cn(CCCCN3C(=O)C(=O)c4cc(Br)ccc43)nn2)c1 :: 11
Cc1ccc(C(C)C)c(OCc2cn(CCN3C(=O)C(=O)c4cc(F)ccc43)nn2)c1 :: 14.2

Please state zone of inhibition at 50 µM for every compound in the list that follows.
1. Cc1ccc(C(C)C)c(OCc2cn(CCN3C(=O)C(=O)c4cc(C)ccc43)nn2)c1
2. Cc1ccc(C(C)C)c(OCc2cn(CCCN3C(=O)C(=O)c4cc(Cl)ccc43)nn2)c1
3. COc1ccc2c(c1)C(=O)C(=O)N2CCCCn1cc(COc2cc(C)ccc2C(C)C)nn1
4. Cc1ccc(C(C)C)c(OCc2cn(CCCN3C(=O)C(=O)c4cc(F)ccc43)nn2)c1

**A:**
11.4
15.5
11.3
16.2

###

# Test system: Pseudomonas aeruginosa
# test-details: Antibacterial activity against Pseudomonas aeruginosa MTCC 424 assessed as inhibition of bacterial growth at 50 uM measured after 48 hrs by agar well diffusion method
# Type: functional
# conditions: read-out: IZ
value-kind: zone of inhibition at 50 µM (mm)
Answers are plain numbers, in mm.

The cases that follow already have their zone of inhibition at 50 µM on record.
Cc1ccc(C(C)C)c(OCc2cn(CCCCN3C(=O)C(=O)c4cc(I)ccc43)nn2)c1 :: 10.6
Cc1ccc(C(C)C)c(OCc2cn(CCN3C(=O)C(=O)c4cc(I)ccc43)nn2)c1 :: 10.4
Cc1ccc(C(C)C)c(OCc2cn(CCCCN3C(=O)C(=O)c4cc(F)ccc43)nn2)c1 :: 12.2
Cc1ccc(C(C)C)c(OCc2cn(CCCCN3C(=O)C(=O)c4cc(Br)ccc43)nn2)c1 :: 11.3
Cc1ccc(C(C)C)c(OCc2cn(CCN3C(=O)C(=O)c4cc(Cl)ccc43)nn2)c1 :: 14.1

# return zone of inhibition at 50 µM for each item in the list
1. Cc1ccc(C(C)C)c(OCc2cn(CCCN3C(=O)C(=O)c4cc(I)ccc43)nn2)c1
2. COc1ccc2c(c1)C(=O)C(=O)N2CCCn1cc(COc2cc(C)ccc2C(C)C)nn1

**A:**
1. 11.6
2. 16.4

###

# test-details: Toxicity against Galleria mellonella assessed as survival rate of larva at 20 mg/kg measured every 12 hrs for 120 hrs
# Format: organism-based
# conditions: in vivo
value-kind: survival at 120 h (%)
One number for each entry, in %.

GET /value?item= `Cc1ccc(C(C)C)c(OCc2cn(CCCN3C(=O)C(=O)c4ccccc43)nn2)c1` &field=survival at 120 h returns 90

###

# Tested on: Escherichia coli
# test-details: Antibacterial activity against clinically isolated Escherichia coli RBRJ013 assessed as inhibition of bacterial growth at 50 uM measured after 48 hrs by agar well diffusion method
# Format: functional
# conditions: read-out: IZ
value-kind: zone of inhibition at 50 µM (mm)
Numbers only, in mm.

# annotated cases, reported zone of inhibition at 50 µM shown
COc1ccc2c(c1)C(=O)C(=O)N2CCn1cc(COc2cc(C)ccc2C(C)C)nn1 :: 11.1
Cc1ccc(C(C)C)c(OCc2cn(CCCCN3C(=O)C(=O)c4cc(Cl)ccc43)nn2)c1 :: 11.4
Cc1ccc(C(C)C)c(OCc2cn(CCN3C(=O)C(=O)c4ccccc43)nn2)c1 :: 14.4
Cc1ccc(C(C)C)c(OCc2cn(CCCCN3C(=O)C(=O)c4cc(C)ccc43)nn2)c1 :: 11.4
Cc1ccc(C(C)C)c(OCc2cn(CCCCN3C(=O)C(=O)c4ccccc43)nn2)c1 :: 11.5
Cc1ccc(C(C)C)c(OCc2cn(CCN3C(=O)C(=O)c4cc(Br)ccc43)nn2)c1 :: 13.2
Cc1ccc(C(C)C)c(OCc2cn(CCCN3C(=O)C(=O)c4cc(Br)ccc43)nn2)c1 :: 15.5
COc1ccc2c(c1)C(=O)C(=O)N2CCCn1cc(COc2cc(C)ccc2C(C)C)nn1 :: 15.4
Cc1ccc(C(C)C)c(OCc2cn(CCCN3C(=O)C(=O)c4cc(I)ccc43)nn2)c1 :: 11.2
Cc1ccc(C(C)C)c(OCc2cn(CCCCN3C(=O)C(=O)c4cc(F)ccc43)nn2)c1 :: 11.1

For each listed entry, give its zone of inhibition at 50 µM.
1. Cc1ccc(C(C)C)c(OCc2cn(CCN3C(=O)C(=O)c4cc(I)ccc43)nn2)c1
2. Cc1ccc(C(C)C)c(OCc2cn(CCCN3C(=O)C(=O)c4ccccc43)nn2)c1

**A:**
[11.3, 20.3]

###

# System: Klebsiella pneumoniae
# test-details: Antibacterial activity against clinically isolated Klebsiella pneumoniae RBRJ024 assessed as inhibition of bacterial growth at 50 uM measured after 48 hrs by agar well diffusion method
# Assay type: functional
# conditions: read-out: IZ
value-kind: zone of inhibition at 50 µM (mm)
Answers are plain numbers, in mm.

Cc1ccc(C(C)C)c(OCc2cn(CCCCN3C(=O)C(=O)c4cc(Cl)ccc43)nn2)c1 :: 10.3
Cc1ccc(C(C)C)c(OCc2cn(CCN3C(=O)C(=O)c4cc(Cl)ccc43)nn2)c1 :: 13.6
Cc1ccc(C(C)C)c(OCc2cn(CCCCN3C(=O)C(=O)c4cc(Br)ccc43)nn2)c1 :: 10.9
Cc1ccc(C(C)C)c(OCc2cn(CCN3C(=O)C(=O)c4ccccc43)nn2)c1 :: 16.5
Cc1ccc(C(C)C)c(OCc2cn(CCCCN3C(=O)C(=O)c4cc(C)ccc43)nn2)c1 :: 12.2
Cc1ccc(C(C)C)c(OCc2cn(CCN3C(=O)C(=O)c4cc(I)ccc43)nn2)c1 :: 12.2
Cc1ccc(C(C)C)c(OCc2cn(CCCN3C(=O)C(=O)c4cc(I)ccc43)nn2)c1 :: 12.7
Cc1ccc(C(C)C)c(OCc2cn(CCN3C(=O)C(=O)c4cc(C)ccc43)nn2)c1 :: 15.7

// next item, zone of inhibition at 50 µM requested
Memo: `Cc1ccc(C(C)C)c(OCc2cn(CCCN3C(=O)C(=O)c4cc(Br)ccc43)nn2)c1` , reported zone of inhibition at 50 µM: 13.3
